Data provenance is patent US12590092B2.

system: hPIV-3 C243; assay: In situ ELISA virus growth inhibition, hPIV-3 C243; format: cell-based, hPIV-3 (strain C243) in LLC-MK2 cells (Rhesus monkey kidney); conditions: Human respirovirus 3, LLC-MK2, in Macaca mulatta, read-out: Viral Growth IC50
property.label: IC50 (µM)
Give bare numbers, in µM.

Example cases with answers are listed next.
O=C(O)C1=C[C@H](n2cc3ccncc3n2)[C@@H](NC(=O)C(F)(F)F)[C@H]([C@H](O)[C@H](O)CO)O1 :: 54.5
O=C(O)C1=C[C@H](n2cc3ccc4cccnc4c3n2)[C@@H](NC(=O)C(F)(F)F)[C@H]([C@H](O)[C@H](O)CO)O1 :: 9.67

Fill in: IC50 of O=C(O)C1=C[C@H](n2cc3ncccc3n2)[C@@H](NC(=O)C(F)(F)F)[C@H]([C@H](O)[C@H](O)CO)O1 is ___
26.9

---

I'd appreciate it if you could supply IC50 values for the items below.
molecular target: hPIV-1 C35 HN (haemagglutination function) (Human parainfluenza 1 virus, UniProt P16071); assay: Haemagglutination inhibition assay, hPIV-1 C35
Numbers only, in µM.

Record excerpt, results attached:
O=C(O)C1=C[C@H](n2cc3ncccc3n2)[C@@H](NC(=O)C(F)(F)F)[C@H]([C@H](O)[C@H](O)CO)O1 [JC2001-49] :: 14.8
O=C(O)C1=C[C@H](n2cc3ccncc3n2)[C@@H](NC(=O)C(F)(F)F)[C@H]([C@H](O)[C@H](O)CO)O1 [JC2001-48] :: 0.27

Entry under review: CC(C)C(=O)N[C@H]1[C@H]([C@H](O)[C@H](O)CO)OC(C(=O)O)=C[C@@H]1n1cc2cc(F)sc2c1C#N [RE1993-40] . Reported IC50?
22.2

---

Assignment: determine reported IC50 for the given compounds.
biological target: hPIV-3 C243 HN (haemagglutination function) (UniProt P08492, species not given/STRAIN_C243); assay: Haemagglutination inhibition assay, hPIV-3 C243; settings: 1% human red blood cells
Sequence (P08492 whole entry, change not shown): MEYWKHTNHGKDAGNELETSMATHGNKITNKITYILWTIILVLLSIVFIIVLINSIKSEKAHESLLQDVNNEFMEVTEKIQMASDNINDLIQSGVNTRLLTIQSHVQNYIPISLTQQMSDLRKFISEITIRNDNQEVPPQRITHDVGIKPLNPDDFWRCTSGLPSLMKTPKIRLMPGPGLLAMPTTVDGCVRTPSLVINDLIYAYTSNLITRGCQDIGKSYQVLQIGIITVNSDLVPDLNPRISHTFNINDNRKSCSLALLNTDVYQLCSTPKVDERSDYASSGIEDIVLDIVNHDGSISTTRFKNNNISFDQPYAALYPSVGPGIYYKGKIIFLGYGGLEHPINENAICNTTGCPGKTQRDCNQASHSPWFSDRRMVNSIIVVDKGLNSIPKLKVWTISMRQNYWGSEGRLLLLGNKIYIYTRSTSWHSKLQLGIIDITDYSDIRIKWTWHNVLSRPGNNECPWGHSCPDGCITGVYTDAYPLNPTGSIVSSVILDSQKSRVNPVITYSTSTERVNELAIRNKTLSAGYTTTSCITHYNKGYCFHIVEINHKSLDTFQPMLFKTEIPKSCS
Numbers only, in µM.

Need IC50 for each of these compounds.
1. O=C(O)C1=C[C@H](n2cc3ccc4cccnc4c3n2)[C@@H](NC(=O)C(F)(F)F)[C@H]([C@H](O)[C@H](O)CO)O1
2. CC(C)C(=O)N[C@H]1[C@H]([C@H](O)[C@H](O)CO)OC(C(=O)O)=C[C@@H]1n1cc2cc(F)sc2c1C#N
3. O=C(O)C1=C[C@H](n2cc3ncccc3n2)[C@@H](NC(=O)C(F)(F)F)[C@H]([C@H](O)[C@H](O)CO)O1
4. CC(C)C(=O)N[C@H]1[C@H]([C@H](O)[C@H](O)CO)OC(C(=O)O)=C[C@@H]1n1nnc2ccc3[nH]ccc3c21 (single isomer, unassigned) [IE1963-113a]
5. O=C(O)C1=C[C@H](n2cc3ccncc3n2)[C@@H](NC(=O)C(F)(F)F)[C@H]([C@H](O)[C@H](O)CO)O1
6. CC(C)C(=O)N[C@H]1[C@H]([C@H](O)[C@H](O)CO)OC(C(=O)O)=C[C@@H]1n1nnc2c3cc[nH]c3ccc21 (single isomer, unassigned) [IE1963-113b]

[3, 0.735, 13.1, 36.7, 13.1, 3]

---

target: hPIV-3 CI002 HN (haemagglutination function) (UniProt P08492, species not given/STRAIN_CI002); test: Haemagglutination inhibition assay, hPIV-3 CI002; details: 1% human red blood cells
property.label: pIC50
Give bare numbers, as −log10 of the molar value.

Some solved entries appear below for comparison.
O=C(O)C1=C[C@H](n2cc3ccc4cccnc4c3n2)[C@@H](NC(=O)C(F)(F)F)[C@H]([C@H](O)[C@H](O)CO)O1 :: 5.31
O=C(O)C1=C[C@H](n2cc3ncccc3n2)[C@@H](NC(=O)C(F)(F)F)[C@H]([C@H](O)[C@H](O)CO)O1 :: 5.31
O=C(O)C1=C[C@H](n2cc3ccncc3n2)[C@@H](NC(=O)C(F)(F)F)[C@H]([C@H](O)[C@H](O)CO)O1 :: 5.31

pIC50 for CC(C)C(=O)N[C@H]1[C@H]([C@H](O)[C@H](O)CO)OC(C(=O)O)=C[C@@H]1n1cc2cc(F)sc2c1C#N ?
6.09

---

target: hPIV-1 C35 HN (neuraminidase function) (Human parainfluenza 1 virus, UniProt P16071); experiment: Neuraminidase inhibition assay (MUN), hPIV-1 C35
Please respond with reported IC50 for every item in the list.
Answer with the value and then the unit.

The following compounds have reported results that may help.
CC(C)C(=O)N[C@H]1[C@H]([C@H](O)[C@H](O)CO)OC(C(=O)O)=C[C@@H]1n1nnc2c3cc[nH]c3ccc21 (single isomer, unassigned) [IE1963-113b] :: 8.4 µM
O=C(O)C1=C[C@H](n2cc3ncccc3n2)[C@@H](NC(=O)C(F)(F)F)[C@H]([C@H](O)[C@H](O)CO)O1 :: 23.2 µM
O=C(O)C1=C[C@H](n2cc3ccncc3n2)[C@@H](NC(=O)C(F)(F)F)[C@H]([C@H](O)[C@H](O)CO)O1 :: 1.71 µM
CC(C)C(=O)N[C@H]1[C@H]([C@H](O)[C@H](O)CO)OC(C(=O)O)=C[C@@H]1n1nnc2ccc3[nH]ccc3c21 (single isomer, unassigned) [IE1963-113a] :: 6.33 µM
CC(C)C(=O)N[C@H]1[C@H]([C@H](O)[C@H](O)CO)OC(C(=O)O)=C[C@@H]1n1cc2cc(F)sc2c1C#N :: 5.41 µM

Then there is this compound:
# value lookup — system hPIV-1 C35 HN (neuraminidase function) (Human parainfluenza 1 virus, UniProt P16071), readout IC50, item O=C(O)C1=C[C@H](n2cc3ccc4cccnc4c3n2)[C@@H](NC(=O)C(F)(F)F)[C@H]([C@H](O)[C@H](O)CO)O1
88.9 µM

---

biological target: hPIV-3 C243 HN (neuraminidase function) (UniProt P08492, species not given/STRAIN_C243); assay: Neuraminidase inhibition assay (MUN), hPIV-3 C243; details: pH 4.6
pIC50: −log10 of the molar value.
pIC50 below 5 gives FALSE; pIC50 at or above it gives TRUE.

Exam item: decide whether the reported pIC50 for CC(C)C(=O)N[C@H]1[C@H]([C@H](O)[C@H](O)CO)OC(C(=O)O)=C[C@@H]1n1cc2cc(F)sc2c1C#N is at least 5.
TRUE

Same read-out for CC(C)C(=O)N[C@H]1[C@H]([C@H](O)[C@H](O)CO)OC(C(=O)O)=C[C@@H]1n1nnc2c3cc[nH]c3ccc21 (single isomer, unassigned) [IE1963-113b] ?
TRUE

And then O=C(O)C1=C[C@H](n2cc3ccc4cccnc4c3n2)[C@@H](NC(=O)C(F)(F)F)[C@H]([C@H](O)[C@H](O)CO)O1 , what is it?
TRUE

Then this compound: O=C(O)C1=C[C@H](n2cc3ccncc3n2)[C@@H](NC(=O)C(F)(F)F)[C@H]([C@H](O)[C@H](O)CO)O1
FALSE

Another: CC(C)C(=O)N[C@H]1[C@H]([C@H](O)[C@H](O)CO)OC(C(=O)O)=C[C@@H]1n1nnc2ccc3[nH]ccc3c21 (single isomer, unassigned) [IE1963-113a]
FALSE

---

target: hPIV-3 CI002 HN (neuraminidase function) (UniProt P08492, species not given/STRAIN_CI002); assay: Neuraminidase inhibition assay (MUN), hPIV-3 CI002; conditions: pH 4.6
Sequence (P08492 whole entry, change not shown): as above
property.label: IC50 (µM)
Give bare numbers, in µM.

Worked cases, IC50 given:
O=C(O)C1=C[C@H](n2cc3ccc4cccnc4c3n2)[C@@H](NC(=O)C(F)(F)F)[C@H]([C@H](O)[C@H](O)CO)O1 :: 19.9
CC(C)C(=O)N[C@H]1[C@H]([C@H](O)[C@H](O)CO)OC(C(=O)O)=C[C@@H]1n1nnc2c3cc[nH]c3ccc21 (single isomer, unassigned) [IE1963-113b] :: 17.1
CC(C)C(=O)N[C@H]1[C@H]([C@H](O)[C@H](O)CO)OC(C(=O)O)=C[C@@H]1n1nnc2ccc3[nH]ccc3c21 (single isomer, unassigned) [IE1963-113a] :: 34.9

Give IC50 for each listed item.
1. O=C(O)C1=C[C@H](n2cc3ccncc3n2)[C@@H](NC(=O)C(F)(F)F)[C@H]([C@H](O)[C@H](O)CO)O1
2. O=C(O)C1=C[C@H](n2cc3ncccc3n2)[C@@H](NC(=O)C(F)(F)F)[C@H]([C@H](O)[C@H](O)CO)O1
3. CC(C)C(=O)N[C@H]1[C@H]([C@H](O)[C@H](O)CO)OC(C(=O)O)=C[C@@H]1n1cc2cc(F)sc2c1C#N

29.2
15.1
2.71
